# System: HL-60
# experimentSummary: NCI tumour cell line growth inhibition, 48 h
Activity calls are given as the source filed them. Cut-off read from the data, not from the text of the source: active = GI50 up to about 1.1 µM and inactive = higher.
observable: GI50

The compound CN1C/C(=C\c2cccs2)C2=NC(=S)NC(c3cccs3)C2C1 (configuration not stated) showed GI50 equal to 2.22 µM (inactive)

Looking up O=C1OC(CC(=O)c2ccc(Cl)c(Cl)c2)C(Cl)=C1Cl (configuration not stated) , I see its GI50 listed as 82 µM (inactive)

GI50 recorded for this compound, O=C1/C(=C\c2cccc(Oc3ccccc3)c2)S(=O)(=O)C(c2ccccc2)N1c1ccc(Cl)cc1 (configuration not stated) , is 13.2 µM (inactive)

Please fill in: GI50 reported for `CN(C)c1ccc(/C=N/n2c(-c3ccccc3)nc3ccccc3c2=O)cc1` = 40 µM (inactive)

Form field GI50, entry `O=C(O)CCSC1=NCCN1` : > 100 µM (inactive)

Recorded GI50 (compound CCCCC(=C=C(C)CO)C1CCCN1C(=O)OC(C)(C)C (configuration not stated) ): 13.4 µM (inactive)

For record `[N-]=[N+]=Nc1ccc(CNc2cc(=O)[nH]c(=O)[nH]2)cc1` the listed GI50 is > 100 µM (inactive)

* * *

# System: SK-MEL-2
# experimentSummary: NCI tumour cell line growth inhibition, 48 h
Activity calls are given as the source filed them. No stated cut-off is given here; in the data, active = GI50 up to about 1.1 µM and inactive = higher.
Give GI50 for every item shown.

Observed GI50 on SK-MEL-2, entry CO/C1=C\C(C)=C\C(C)C(O)C(C)C/C(C)=C/C=C/C(OC)C(C(C)C(O)C(C)C2(O)CC(O)C(C)C(C(C)C)O2)OC1=O (stereo not given) , equals 0.00453 µM (active)

The recorded GI50 with SK-MEL-2 for `c1ccc2c(c1)OCCOCCOc1ccccc1OCCO2` was 90.4 µM (inactive)

Measured GI50 for this entry `ClCCCCCc1c2nc(c(CCCCCCl)c3ccc([nH]3)c(CCCCCCl)c3nc(c(CCCCCCl)c4ccc1[nH]4)C=C3)C=C2` on SK-MEL-2: > 100 µM (inactive)

The compound C/C=C\C(CC(=O)NCCC1CN(S(=O)(=O)C(F)(F)F)c2ccccc21)CC(=O)OC (stereo not given) on SK-MEL-2: GI50 was 32.1 µM (inactive)

Record `O=C(CSc1nc(O)nc2[nH]cnc12)Nc1ccccc1` / SK-MEL-2, GI50 recorded as > 100 µM (inactive)

// compound COc1ccc(/C(=N\NC(=O)NN)C(c2ccc(OC)cc2)C2(O)C(=O)Nc3c(Cl)cc(Cl)cc32)cc1 (stereo not given) , assay SK-MEL-2, GI50 value: > 100 µM (inactive)

// GI50 (SK-MEL-2) for `O=C(N/C(=C\c1ccc(/C=C(\NC(=O)c2ccccc2)c2nc3cc(Cl)ccc3[nH]2)cc1)c1nc2cc(Cl)ccc2[nH]1)c1ccccc1` = 36.7 µM (inactive)

Log: SK-MEL-2, compound CCOC(=O)C(NC(=O)c1ccccc1)(Nc1ccc(S(=O)(=O)Nc2cc(C)nc(C)n2)cc1)C(F)(F)F (stereo not given) , GI50 = > 100 µM (inactive)

Reported GI50 (SK-MEL-2) for entry `O=C1c2cc(I)ccc2N2CCN=C2N1Cc1ccccc1` is > 100 µM (inactive)

Recorded GI50 for `C=CCN1C[C@H](C)N([C@H](c2ccc(C(=O)NC(CC)CC)cc2)c2cccc(OC)c2)C[C@H]1C` on SK-MEL-2 was 20.9 µM (inactive)

Form field GI50 for item O=C1NC2c3c(I)sc(I)c3/C(=N\O)C2O1 (stereo not given) on SK-MEL-2: 63.7 µM (inactive)

Observed GI50, SK-MEL-2, CC(ON(C(c1ccccc1)C(C)C)C(C)(C)C)c1ccccc1 (stereo not given) : 18.4 µM (inactive)

Fill in: SK-MEL-2 GI50 for OC1CCCC1C(O)(C(F)(F)F)C(F)(F)F (stereo not given) = > 100 µM (inactive)

Kindly note: SK-MEL-2, O=C(O)C(CCc1ccccn1)c1ccccc1 (stereo not given) , GI50 value reported: > 100 µM (inactive)

`Cc1n[nH]c(=S)n1/N=C/c1ccc(-c2ccc(Cl)cc2)o1` tested on SK-MEL-2 gave GI50: 29.8 µM (inactive)

Measured GI50 for this entry `CSC(SC)=C1CC(=O)Nc2ccccc2C1=O` on SK-MEL-2: 53.3 µM (inactive)

NC1OC(COC(=O)c2ccccc2)C(O)C(OC(=O)c2ccccc2)C1OC(=O)c1ccccc1 (stereo not given) on SK-MEL-2 gives GI50 = 29.9 µM (inactive)

Form: item `Cc1cc(S(=O)(=O)Nc2nc3ccsc3c(=O)n2N)c(S)cc1Cl` ; test system SK-MEL-2; GI50: 76.2 µM (inactive)

Measured GI50 (SK-MEL-2), entry `O=C1c2ccccc2-c2c1c1ccccc1c(=O)n2CCO` : 39.6 µM (inactive)

Entry `COC(=O)C1=C(C)N2[C@H](C(=O)O)CO[C@@]2(C)[C@H](C(=O)OC)[C@H]1c1cccc([N+](=O)[O-])c1` , SK-MEL-2 data, GI50 value: > 100 µM (inactive)

Field GI50 (SK-MEL-2), entry `O=C(O)c1ccccc1C(=O)Nn1cnnc1` : > 100 µM (inactive)

Entry `COc1ccc2c(c1)[nH]c1c(/C=C/c3ccccc3)nccc12` under SK-MEL-2 had GI50 of 16.2 µM (inactive)

# CCCCCCCC(=O)OCC1OC(n2cc(F)c(=O)[nH]c2=O)C(N)C(OC(=O)CCCCCCC)C1O (stereo not given) with SK-MEL-2: GI50 is 18.8 µM (inactive)

Considering `CCN(CC)/C(=C\Cl)Nc1ccccn1.[O-][Cl+3]([O-])([O-])O` , its GI50 with SK-MEL-2 was recorded as > 100 µM (inactive)

Recorded GI50 for `CN(C)c1ccc(/C=N/n2c(-c3ccccc3)nc3ccccc3c2=O)cc1` on SK-MEL-2 was 82.2 µM (inactive)

Item: O=C(O)CCCc1ccc2c(c1)C(C(=O)O)CC2 (stereo not given) | System: SK-MEL-2 | GI50: > 100 µM (inactive)

Record `O=c1[nH]c2ccccc2c(=O)n1/N=C\c1ccccc1O` / SK-MEL-2, GI50 recorded as > 100 µM (inactive)

GI50 value, target or system SK-MEL-2, for `O=C(O)c1ccccc1/C=C1/Nc2ccccc2C1=O` : > 100 µM (inactive)

Reading of GI50 for CC(C)c1cc2c(c(O)c1O)[C@@]1(C(=O)O)CCCC(C)(C)[C@@H]1CC2 [CARNOSIC ACID] with SK-MEL-2: 18.9 µM (inactive)

The compound `Cc1nc(Nc2ccc(Cl)cc2)sc1C(=O)NNc1ccc([N+](=O)[O-])cc1[N+](=O)[O-]` on SK-MEL-2: GI50 was 17.9 µM (inactive)
